src = a melting point compilation (Tetko et al.; mined from patent text by program, amines drawn as free bases though some values may be those of a salt)

melting point values for the compounds below.

Observe how each entry below is paired with its result.
O=C(OCc1ccc([N+](=O)[O-])cc1)OCc1ccc([N+](=O)[O-])cc1 | 156 to 158 °C
Cc1cccc(Nc2ccccc2-c2n[nH]c(=O)o2)c1C | 239 to 241 °C
COc1cc(-c2cc(-c3ccccc3)c(N3CCOCC3)s2)nc(OC)c1OC | 124 °C

Input line: Entry under review: CCCCn1c(C)c(N)c(=O)n(C)c1=O . Reported melting point?
Output line: 74 to 75 °C

Input line: Entry under review: COc1ccc2c(c1)C(Cc1ccnc(F)c1)(Cc1ccnc(F)c1)c1ccccc1-2 . Reported melting point?
Output line: 143 to 146 °C

---

melting point values for the compounds below.

Input line: Entry under review: CC(C)Oc1ccccc1-c1cc(=O)c2cc(-c3nnn[nH]3)ccc2o1 . Reported melting point?
Output line: 293 to 295 °C

Input line: Entry under review: N=C(NO)c1cc(C(F)(F)F)cc(-c2ccc(Cl)cc2)n1 . Reported melting point?
Output line: 180 to 186 °C

---

property-label: melting point

CC(C)(C)NC(=O)c1ccncc1 | 115 to 117 °C
FC(F)(F)c1cccc(-c2cc(C(F)(F)F)n3nccc3n2)c1 | 96 °C
CCc1c(CC(=O)NCCCCCCN)ccc(OC)c1OC | 136 to 138 °C

Input line: Entry under review: CS(=O)(=O)Nc1ccc(NC(=O)C(=O)N2CCC(Cc3ccc(F)cc3)CC2)cc1 . Reported melting point?
Output line: 178 to 182 °C

Input line: Entry under review: COC(=O)COc1cccc2c(CCS(=O)CCc3ccccc3)c(C)oc12 (stereo not given) . Reported melting point?
Output line: 77 to 78 °C

Input line: Entry under review: Cc1cc(C)c2cccc(OCc3c(Cl)ccc(S(=O)(=O)N4CCC[C@H]4C(=O)N4CCN(C(=O)c5ccc(C(N)=NO)cn5)CC4)c3Cl)c2n1 . Reported melting point?
Output line: 148 to 150 °C

Input line: Entry under review: Cc1nc2c(O[C@H]3c4ccccc4C[C@@H]3O)cccn2c1CO . Reported melting point?
Output line: 174 to 175 °C

Input line: Entry under review: CCOCc1nc2c(N)nc3cc(N4CCOC4=O)ccc3c2n1CCCOC(C)C . Reported melting point?
Output line: 166 to 167 °C

Input line: Entry under review: CC1(C)OC(=O)C2=C(CCCCCC2)O1 . Reported melting point?
Output line: 73.5 to 74.5 °C

Input line: Entry under review: O=C(OCc1ccccc1)c1cc(Cl)nc(Cl)c1 . Reported melting point?
Output line: 39 to 41 °C

---

melting point values for the compounds below.

NNC(=O)c1cc2ccncc2c2sc3ccccc3c12 | 285 to 289 °C
COc1cc(C(C)=O)ccc1OCCCN1C2CCC1CC(c1n[nH]c3cc(F)ccc13)C2 (stereo not given) | 157 to 158 °C
CS(=O)(=O)c1ccccc1OCCF | 67 to 69 °C
CCCCCCCCCCCCCCCC(=O)OC(CCCCCCCCCCCCCC)C(=O)O (stereo not given) | 55 to 56 °C

Input line: Entry under review: COC(=O)[C@@H]1C[C@H](C(=O)OC(C)(C)C)N(C(=O)CNC(=O)Nc2cccc(C)c2)[C@@H]1c1ccccc1 (racemic) . Reported melting point?
Output line: 130 °C
